TARGET DESC: Protein kinase C delta type (Mus musculus, UniProt P28867)
Sequence (P28867 whole entry, the tested form may be a part): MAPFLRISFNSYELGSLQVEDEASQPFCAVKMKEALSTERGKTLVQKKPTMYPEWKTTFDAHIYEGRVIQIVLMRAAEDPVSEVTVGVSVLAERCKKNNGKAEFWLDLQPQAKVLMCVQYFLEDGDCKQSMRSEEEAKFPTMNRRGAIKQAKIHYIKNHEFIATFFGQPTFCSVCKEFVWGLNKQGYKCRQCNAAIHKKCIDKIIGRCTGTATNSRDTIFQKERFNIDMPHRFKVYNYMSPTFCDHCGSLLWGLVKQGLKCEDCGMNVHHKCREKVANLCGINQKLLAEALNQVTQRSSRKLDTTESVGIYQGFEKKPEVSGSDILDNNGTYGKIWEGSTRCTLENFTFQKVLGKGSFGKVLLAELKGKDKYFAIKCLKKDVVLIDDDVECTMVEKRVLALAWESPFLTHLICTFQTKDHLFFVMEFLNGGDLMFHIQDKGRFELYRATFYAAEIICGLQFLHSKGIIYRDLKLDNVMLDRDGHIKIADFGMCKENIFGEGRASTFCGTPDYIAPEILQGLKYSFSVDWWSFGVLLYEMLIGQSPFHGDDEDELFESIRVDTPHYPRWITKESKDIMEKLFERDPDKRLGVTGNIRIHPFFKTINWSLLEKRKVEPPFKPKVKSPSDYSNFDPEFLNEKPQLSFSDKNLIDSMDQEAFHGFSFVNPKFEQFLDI
TEST DETAILS: Inhibition of [3H]PDBu binding to PKCdelta C1B domain in CD-1 mouse brain cytosol incubated for 30 mins
VALUE KIND: pKi
// scale note: pKi = -log10(conc_M); give the bare number

Consider the compound CCCCCCCCOC(=O)C[C@@H](OCCCCCCCC)[C@@H](C)O tested on Protein kinase C delta type (Mus musculus, UniProt P28867); state its pKi.
5.54

Consider the compound CCCCCCCCOC(=O)C[C@@H](OC(=O)CCCCCCC)[C@@H](C)O tested on Protein kinase C delta type (Mus musculus, UniProt P28867); state its pKi.
6.43

Just for reference, ChEMBL document CHEMBL3822405 is where these values come from.
